- Test system: primary cultured rat hepatocytes
- EXPERIMENT_NOTES: In vitro cytotoxicity in primary cultured rat hepatocytes
- Assay type: cell-based
- CONDITION_INFO: 24 h treatment, cell morphology and LDH leakage, highest concentration 300 μM; "300 s" = only slight cytotoxicity at the highest test concentration

COMPOUND | LCC (lowest cytotoxic concentration) (s)
CN(c1nc2cc(F)ccc2o1)C1CCc2c(c3ncccc3n2CC(=O)O)C1 (stereo not shown) [drawing 13] | 300
CN(c1nc2cc(Cl)ccc2o1)C1CCc2c(c3ncccc3n2CC(=O)O)C1 (stereo not shown) [drawing 12] | 300

----------
- Test system: primary cultured rat hepatocytes
- EXPERIMENT_NOTES: In vitro cytotoxicity in primary cultured rat hepatocytes
- Format: cell-based
- CONDITION_INFO: 24 h treatment, cell morphology and LDH leakage, highest concentration 300 μM

COMPOUND | UNITS_OF_MEASURE | MEASUREMENT_QUALIFIER | NoEC (no effect concentration)
CN(c1nc2cc(Cl)ccc2o1)C1CCc2c(c3ncccc3n2CC(=O)O)C1 (stereo not shown) [drawing 12] | µM | = | 100
CN(c1nc2ccc(Cl)cc2o1)[C@H]1CCc2c(c3cc(F)ccc3n2CC(=O)O)C1 | µM | = | 30
CN(c1nc2cc(F)ccc2o1)C1CCc2c(c3ncccc3n2CC(=O)O)C1 (stereo not shown) [drawing 13] | µM | = | 100
CN(c1nc2ccc(Cl)cc2o1)C1CCc2c(c3ncccc3n2CC(=O)O)C1 (stereo not shown) [drawing 11] | µM | > | 300

----------
- STUDY_TARGET: hCRTH2 receptor (Homo sapiens, UniProt Q9Y5Y4)
- Construct: expressed in transfected cells; host or cells: HEK293 (recombinant HEK293-hCRTH2), membrane fragments
- Sequence (Q9Y5Y4 whole entry, the tested form may be a part): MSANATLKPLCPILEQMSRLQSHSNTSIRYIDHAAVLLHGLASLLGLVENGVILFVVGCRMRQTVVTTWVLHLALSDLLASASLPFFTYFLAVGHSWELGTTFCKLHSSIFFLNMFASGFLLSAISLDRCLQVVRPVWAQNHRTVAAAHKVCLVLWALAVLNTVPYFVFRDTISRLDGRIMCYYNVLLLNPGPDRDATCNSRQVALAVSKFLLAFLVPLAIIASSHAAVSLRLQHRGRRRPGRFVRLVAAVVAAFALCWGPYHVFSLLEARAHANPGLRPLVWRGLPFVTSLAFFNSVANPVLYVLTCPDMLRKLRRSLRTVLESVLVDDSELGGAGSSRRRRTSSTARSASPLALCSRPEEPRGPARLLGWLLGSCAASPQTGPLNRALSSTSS
- EXPERIMENT_NOTES: Radioligand displacement assay in presence of human serum albumin (HSA)
- CONDITION_INFO: Binding buffer with 0.5% HSA instead of 0.1% BSA, 3H-PGD2 2.5 nM
- Procedure: First, recombinant HEK293-hCRTH2 cells were detached from culture plates into 5 ml buffer A/plate (Buffer A: 5 mM Tris, 1 mM MgCl2-6H2O pH=7.4) using a rubber policeman. Cells were then transferred into centrifugation tubes and centrifuged for 5 min at 400 g. […] Binding assay was performed in a final assay volume of 250 μl. […] Then, 40 μl of Microscint-40 (Packard) was added to each well and the retained radioactivity quantified in a Topcount (Packard). […]
pIC50: −log10 of the molar value.

COMPOUND | STUDY_TARGET | pIC50
CN(c1nc2ccc(Cl)cc2o1)C1CCc2c(c3ncccc3n2CC(=O)O)C1 (stereo not shown) | hCRTH2 receptor (Homo sapiens, UniProt Q9Y5Y4) | 7.51

----------
- Test system: eosinophils activated by PGD2
- EXPERIMENT_NOTES: Eosinophil shape change assay with human plasma
- Format: cell-based
- CONDITION_INFO: 50% human plasma, PGD2 100 nM, shape change by forward-scatter
pIC50: −log10 of the molar value.
QUANTITY_NAME: pIC50

MOLECULE | STUDY_TARGET | QUANTITY_NAME | OBS_VALUE
CN(c1nc2ccc(Cl)cc2o1)C1CCc2c(c3ncccc3n2CC(=O)O)C1 (stereo not shown) | eosinophils activated by PGD2 | pIC50 | 7.57
